Task for the reader: assign each of the following compounds its reported normalized growth.
# assay: chemical genetic growth profiling, strain panel (AID 1159580);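 also: tested at 20 µM; growth read once vehicle control cultures reached saturation at 30 °C; 1 = growth at the plate median or of vehicle wells; lower values mean less growth of the strain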
# condition-details: S. cerevisiae deletion strains, growth OD, locus YJL187C, strain SWE1 (second series), stronger effect = lower value
Screen size: about 5,500 compounds; about 2,000 (36%) were called active. Not shown: some 18% with an inconclusive outcome. The list shows a part of the results.
Numbers only.

The examples below pair each entry with its known result.
Field normalized growth (entry CC[C@H]1OC(=O)[C@H](C)[C@@H](O[C@H]2C[C@@](C)(OC)[C@@H](O)[C@H](C)O2)[C@H](C)[C@@H](O[C@@H]2O[C@H](C)C[C@H](N(C)C)[C@H]2O)[C@](C)(O)C[C@@H](C)[C@@H]2N[C@@H](COCCOC)O[C@H]([C@H]2C)[C@]1(C)O ) reads 1.05

Record COc1ccc(C2C(=O)c3ccccc3C2=O)cc1 , field normalized growth: 0.998

Lookup result for COc1cccc(O)c1O ; measured normalized growth: 0.976

Kindly give each listed record's normalized growth.
1. CCOc1ccc(NC(C)=O)cc1
2. COc1ccc(C(=O)O)c(O)c1OC
3. CCOC([O-])=Nc1c[n+](N2CCOCC2)no1
4. COP(=O)(OC)OC(Br)C(Cl)(Cl)Br (configuration not stated)
5. O=c1[nH]cnc2c1ncn2C1O[C@H](CO)[C@@H](O)[C@H]1O (some centres not stated)
6. O=C(CCc1ccc(O)cc1)c1c(O)cc(O)cc1O[C@@H]1O[C@H](CO)[C@@H](O)[C@H](O)[C@H]1O

Completion:
1. 0.996
2. 1.01
3. 1.01
4. 0.965
5. 1
6. 1.03
